# Tested on: LOX IMVI melanoma
# Measurement Description: NCI tumour cell line growth inhibition, 48 h; in the data active = GI50 below about 0.43 µM; inactive = the rest
The categories you may choose from are 1 (active), 0 (inactive)

Example results:
{"Compound": "COc1cc2c(cc1F)C(c1ccccc1Cl)=Nc1c(n[nH]c1C)N2", "Classification": 0}
{"Compound": "O=C(CN1N=C(c2ccc(F)cc2)CCC1=O)Nc1nc2ccccc2s1", "Classification": 1}
{"Compound": "COC(=O)c1cc(-c2ccc(OC)c(OC)c2)[nH]c1N/N=C/c1c(Cl)cccc1Cl", "Classification": 0}

Input: Look up the recorded call for `COc1ccc(Nc2ccnc(N3CCN(c4ccnc5cc(Cl)ccc45)CC3)n2)cc1` in this test.
Output: 0

Input: Hey, what did the test say about `Oc1c(-c2cc(C(F)(F)F)[nH]n2)cc(Cl)c(OCc2ccc(Cl)cc2)c1-c1ccc(Cl)c(C(F)(F)F)c1` ?
Output: 0

Input: Per the assay record, what outcome was assigned to Cc1ccc(C2C3Cc4ccccc4C3=NN2c2ccc(S(=O)(=O)/N=c3\scc(-c4ccccc4)n3-c3ccccc3)cc2)cc1 (stereo unspecified) ?
Output: 0

Input: How was `Oc1cccc2c1NCCC2` classified in this test?
Output: 1

Input: Hi team, can someone confirm the assay call for `N#CCCNc1nonc1-c1nc2ccccc2n1CC(=O)c1ccc(NC(=O)[C@@H](N)CCCCN)cc1` ?
Output: 1

Input: What classification did `COc1cc2ncc3c(nc4sccn43)c2cc1OC` end up with in this test?
Output: 0

Input: Any idea what this test logged for `COc1cc(O)c2c(=O)c(OC)c(-c3ccc(OC)c(OC)c3)oc2c1` ?
Output: 0

Input: Could you kindly confirm the outcome this assay logged for `CCC(=O)Nc1ccc(N2C(=O)/C(=C/c3ccc(OC)cc3)N=C2c2ccccc2)cc1` ?
Output: 0

====

# Test system: NCI-H522 lung
# Measurement Description: NCI tumour cell line growth inhibition, 48 h
Outcome Measure: TGI (µM)
Quick reminder: number only, in µM, skip the unit.

{"Molecule": "COc1ccc(/C=C(\\C)[N+](=O)[O-])cc1OC", "Outcome Measure": "TGI", "Value": 2.94}
{"Molecule": "C=C(C)[C@@H]1CC[C@]2(C(=O)OC)CC[C@]3(C)[C@H](CC[C@@H]4[C@@]5(C)CC[C@H](O)C(C)(C)[C@@H]5CC[C@]43C)[C@@H]12", "Outcome Measure": "TGI", "Value": 40.6}
{"Molecule": "CC(C)/C(Cl)=N/OC(=O)Nc1ccc(Cl)c(Cl)c1", "Outcome Measure": "TGI", "Value": 3.25}
{"Molecule": "COC(=O)c1cc(-c2ccc(OC)c(OC)c2)[nH]c1N/N=C/c1c(Cl)cccc1Cl", "Outcome Measure": "TGI", "Value": 2.51}
{"Molecule": "C=CCOc1ccc(C2C(C(=O)OC)C(=O)CC(O)(c3ccccc3)C2C(=O)OC)cc1OC (stereo not given)", "Outcome Measure": "TGI", "Value": 50.5}
{"Molecule": "CCc1ccc2c(c1)N(CC(C)CN(C)C)c1ccccc1S2 (stereo not given)", "Outcome Measure": "TGI", "Value": 7.96}
{"Molecule": "C/C(=N\\O)c1cccc(Nc2cc(-n3ccnc3)c3ccccc3n2)c1", "Outcome Measure": "TGI", "Value": 30.7}
{"Molecule": "O=C(/C=C/c1ccc(Cl)c(Cl)c1)c1cccc2ccccc12", "Outcome Measure": "TGI", "Value": 10}

Input `CN1CCc2nc3sc(C(N)=O)c(N)c3c(-c3cccs3)c2C1` . Output TGI: 17.8

Please fill in: TGI reported for `Fc1ccc(/C=N/n2c(-c3ccc(F)c(Cl)c3)n[nH]c2=S)cc1` = 52.2

Sample `Oc1c(-c2cc(C(F)(F)F)[nH]n2)cc(Cl)c(OCc2ccc(Cl)cc2)c1-c1ccc(Cl)c(C(F)(F)F)c1` ; TGI observed: 1.72

Given item CCN(CC)C1Oc2cc3c(cc2C(c2cccc(OC)c2OC)C1C)OCO3 (stereo not given) , the value recorded as its TGI is 26.3

Data point: `CC(C)C[C@H](NC(=O)CCn1ccc2ccccc2c1=O)B(O)O` ; TGI = 8.09

The measured TGI associated with O=C1c2c(Br)sc(Br)c2[C@@H](NC(=O)C(F)(F)F)C1Br (stereo not given in full) reads 5.07

Briefly, TGI measured for `O=C(Nc1ccccc1OC(=O)c1ccccc1)c1ccccc1` : 77.9

====

# Tested on: LXFL 529 NSCLC
# Measurement Description: NCI tumour cell line growth inhibition, 48 h
Outcome Measure: TGI

{"Molecule": "CC(=O)/C(=C\\c1ccccc1O)C(=O)Nc1ccccc1C", "Outcome Measure": "TGI", "Value": "98.6 µM"}
{"Molecule": "Cc1cc(=O)c2c(O)cc3c(c2o1)CC=C(COC1OC(COC2OC(CO)C(O)C(O)C2O)C(O)C(O)C1O)CO3 (stereo unspecified)", "Outcome Measure": "TGI", "Value": "> 100 µM"}
{"Molecule": "ClC1=C(Cl)C(Cl)(Cl)c2c3c(c4c(c21)C(Cl)(Cl)C(Cl)=C4Cl)C(Cl)(Cl)C(Cl)=C3Cl", "Outcome Measure": "TGI", "Value": "> 100 µM"}
{"Molecule": "Cc1cc2c(c(C(N)=O)c1C)-c1cc(Cl)cc(Cl)c1C2=O", "Outcome Measure": "TGI", "Value": "> 100 µM"}
{"Molecule": "Cc1cc(NS(=O)(=O)c2ccc(NC(=O)c3cccc4c(Nc5ccc(S(N)(=O)=O)cc5)c5ccccc5nc34)cc2)no1", "Outcome Measure": "TGI", "Value": "> 100 µM"}
{"Molecule": "N#CCN1C(=O)c2cc([N+](=O)[O-])cc3cc([N+](=O)[O-])cc(c23)C1=O", "Outcome Measure": "TGI", "Value": "> 50.6 µM"}
{"Molecule": "CC1=NN(c2ccccc2)C(=O)/C1=C\\c1ccc([N+](=O)[O-])cc1", "Outcome Measure": "TGI", "Value": "> 100 µM"}
{"Molecule": "Cc1ccc(NC(=O)C(=O)C(C(=O)/C=C/c2ccccc2)C2OC(=O)c3ccccc32)c(C)c1 (stereo unspecified)", "Outcome Measure": "TGI", "Value": "> 100 µM"}
{"Molecule": "COc1ccc(OC(=O)CC2Cc3cc(OC)c(OC)c(OC)c3-c3ccc(SC)c(=O)cc32)cc1 (stereo unspecified)", "Outcome Measure": "TGI", "Value": "11.3 µM"}
{"Molecule": "Oc1cc(-n2cccn2)c(O)cc1-n1cccn1", "Outcome Measure": "TGI", "Value": "34.7 µM"}

# TGI of `COC(=O)C(=O)Cc1nc2ccccc2o1` = > 100 µM

What the record says about `c1ccc2c(c1)CCc1c-2n[nH]c1-c1[nH]nc2c1CCc1ccccc1-2` : TGI is > 100 µM

====

# Test system: MDA-MB-435
# Measurement Description: NCI tumour cell line growth inhibition, 48 h
Outcome Measure: TGI

TGI in this record for `Oc1cccc2c1NCCC2` : > 100 µM

Form: molecule = c1ccc(CC2COC(c3cccs3)=N2)cc1 (centres undefined) ; TGI = > 100 µM

Short answer for `CN=C(Nc1cccc(C(F)(F)F)c1)SCc1ccc(N=C=S)cc1` : TGI was 27 µM

Measured TGI of `FC(F)(F)c1cccc(-c2nn3ncccc3c2-c2ccnc(Nc3ccc4c(c3)OCCO4)n2)c1` : > 25 µM

In plain terms, `COc1ccc2c(c1)C(=O)c1c-2c(OCCN(C)C)nc2ccccc12` has a documented TGI of 10.1 µM

The molecule listed as `Cn1ccnc1Oc1ccc(Cl)cc1` shows TGI equal to 25.1 µM

Reported TGI ( O=[N+]([O-])c1ccc(C(O)(C#CCN2CCCC2)c2ccccc2)cc1 (centres undefined) ) = 80.1 µM

Lookup result for `CC(=O)O[C@H]1CC[C@@]2(C)C(=CC[C@@H]3[C@@H]2CC[C@]2(C)c4nc(Cl)ccc4C[C@@H]32)C1` ; measured TGI: > 100 µM

Briefly, TGI measured for Cc1ccc(C2C3Cc4ccccc4C3=NN2c2ccc(S(=O)(=O)/N=c3\scc(-c4ccccc4)n3-c3ccccc3)cc2)cc1 (centres undefined) : 37.7 µM

Entry CC1C=CC(OC(=O)C(C)(O)CCC(O)(C(=O)OC2CC(O)C(C(C)C)CC2(C)O)C(C)C)(C(C)C)CC1 (centres undefined) — recorded TGI = 1.13 µM

Item: `O=C(O)c1ccccc1NC(=S)c1ccccc1` | TGI: > 100 µM

The molecule identified as `NNc1nnc(-c2nnc(NN)o2)o1` registered its TGI at > 10 µM

Lab note: N/C(=N\OC(=O)c1ccccc1)C(Cc1ccccc1)C(=O)NOC(=O)c1ccccc1 (centres undefined) gave TGI of 3.9 µM

The molecule listed as `O=C(O)c1ccccc1N=Nc1c(O)c(S(=O)(=O)O)cc2cc(S(=O)(=O)O)ccc12` has a reported TGI of > 100 µM

Recorded TGI (molecule CO/N=C1/c2sccc2[C@H](NC(=O)C(Cc2ccccc2)NC(=O)OC(C)(C)C)[C@@H]1O (some centres undefined) ): > 100 µM

Reported TGI ( COc1ccc(C2=NOC(N)(c3ccc(OC)cc3)C2)cc1 (centres undefined) ) = > 100 µM

These entries and their values trace back to PubChem BioAssay (NCI).
